Target: T1, EsCas13d, nuclease-dead (Eubacterium siraeum, UniProt B0MS50, R295A;H300A;R849A;H854A)
T1 sequence: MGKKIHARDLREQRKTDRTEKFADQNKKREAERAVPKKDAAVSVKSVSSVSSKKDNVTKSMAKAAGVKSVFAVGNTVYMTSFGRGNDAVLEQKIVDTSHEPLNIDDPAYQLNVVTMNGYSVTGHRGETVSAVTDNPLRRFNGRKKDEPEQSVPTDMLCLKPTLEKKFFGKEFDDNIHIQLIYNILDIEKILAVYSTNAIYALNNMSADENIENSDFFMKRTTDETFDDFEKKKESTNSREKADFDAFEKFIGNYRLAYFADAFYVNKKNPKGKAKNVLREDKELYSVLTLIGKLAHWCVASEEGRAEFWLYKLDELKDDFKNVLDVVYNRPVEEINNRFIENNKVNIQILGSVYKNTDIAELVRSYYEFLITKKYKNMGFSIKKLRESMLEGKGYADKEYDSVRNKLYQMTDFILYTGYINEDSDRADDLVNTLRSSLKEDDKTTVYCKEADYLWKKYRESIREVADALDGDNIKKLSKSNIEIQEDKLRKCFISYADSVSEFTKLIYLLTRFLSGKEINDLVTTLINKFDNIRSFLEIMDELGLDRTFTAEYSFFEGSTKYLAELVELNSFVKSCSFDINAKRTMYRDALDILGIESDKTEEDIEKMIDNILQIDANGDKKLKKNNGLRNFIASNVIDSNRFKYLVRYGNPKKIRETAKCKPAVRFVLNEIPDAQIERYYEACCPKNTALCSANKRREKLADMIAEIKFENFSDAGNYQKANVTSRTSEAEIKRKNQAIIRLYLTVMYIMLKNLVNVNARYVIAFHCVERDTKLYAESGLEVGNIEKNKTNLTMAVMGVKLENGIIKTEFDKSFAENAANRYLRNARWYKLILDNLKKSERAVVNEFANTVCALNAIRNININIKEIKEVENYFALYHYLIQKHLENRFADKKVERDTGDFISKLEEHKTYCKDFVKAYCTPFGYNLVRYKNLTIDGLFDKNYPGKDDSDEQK
Assay: crRNA (strand 1, pre-loaded); Mg2+; 40 mM Tris-HCl pH 7.5, 150 mM NaCl, 6 mM MgCl2, 1 mM DTT, 0.1% Tween-20, 0.2 mg/ml BSA; 25 C; 10 min per concentration, then washed
Conditions: tags: His6-TwinStrep-SUMO cleaved; N-terminal SNAP kept (SNAP-Surface 488); label: 3' end held by stalled T7 RNA polymerase
pKd: −log10 of the molar value.
Recorded metric: pKd

- Binder: "target 1 insA 3' of 21,insC 3' of 18 (mixed) RNA 1: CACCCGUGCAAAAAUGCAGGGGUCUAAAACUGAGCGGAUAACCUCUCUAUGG RNA 2: GGGAAUGGAUCCACAUCUACGAAUUCGUACCAAUACGAGAGGUUAUCCGCUCACCGAGAUCGGAAGAGCACACGU"
  Recorded value: 7.33
- Binder: "target 1 insG 3' of 11,insA 3' of 3 (mixed) RNA 1: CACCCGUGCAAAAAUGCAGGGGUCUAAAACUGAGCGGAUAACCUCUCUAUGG RNA 2: GGGAAUGGAUCCACAUCUACGAAUUCGUACCAUAGAGAGGUGUAUCCGCUACACCGAGAUCGGAAGAGCACACGU"
  Recorded value: 7.76
- Binder: "target 3 G4A,U8A (mixed) RNA 1: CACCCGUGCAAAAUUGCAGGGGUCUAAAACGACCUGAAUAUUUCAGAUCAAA RNA 2: GGGAAUGGAUCCACAUCUACGAAUUCGUUUUUGAUCUGAAAUAAUCAAGUCUGCAGAUCGGAAGAGCACACGU"
  Recorded value: 7.12
- Binder: "target 1 G5U,U10A (mixed) RNA 1: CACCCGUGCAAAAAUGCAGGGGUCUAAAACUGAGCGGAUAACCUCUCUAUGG RNA 2: GGGAAUGGAUCCACAUCUACGAAUUCGUACCAUAGAGAGGUAAUCCUCUCACCGAGAUCGGAAGAGCACACGU"
  Recorded value: 7.02
- Binder: "target 1 del3,del17 (mixed) RNA 1: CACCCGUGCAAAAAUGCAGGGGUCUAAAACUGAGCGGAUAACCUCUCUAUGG RNA 2: GGGAAUGGAUCCACAUCUACGAAUUCGUACCAUAAGAGGUUAUCCGCCACCGAGAUCGGAAGAGCACACGU"
  Recorded value: 7.17
- Binder: "target 3 insG 3' of 22,insG 3' of 6 (mixed) RNA 1: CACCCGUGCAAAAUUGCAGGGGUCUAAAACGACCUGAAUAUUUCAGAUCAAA RNA 2: GGGAAUGGAUCCACAUCUACGAAUUCGUUUGUUGAUCUGAAAUAUUCGAGGUCUGCAGAUCGGAAGAGCACACGU"
  Recorded value: 7.05
- Binder: "target 1 U11A,A16G (mixed) RNA 1: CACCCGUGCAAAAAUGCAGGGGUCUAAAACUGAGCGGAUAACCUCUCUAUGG RNA 2: GGGAAUGGAUCCACAUCUACGAAUUCGUACCAUAGGGAGGAUAUCCGCUCACCGAGAUCGGAAGAGCACACGU"
  Recorded value: 7.11
- Binder: "target 2 MT 5'PFS ACG 3'PFS AAC (mixed) RNA 1: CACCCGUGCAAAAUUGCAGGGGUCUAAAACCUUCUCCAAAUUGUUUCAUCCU RNA 2: GGGAAUGGAUCCACAUCUACGAAUUCACGAGGAUGAAACAAUUUGGAGAAGAACAGAUCGGAAGAGCACACGU"
  Recorded value: 8.26
- Binder: "target 1 U19A (mixed) RNA 1: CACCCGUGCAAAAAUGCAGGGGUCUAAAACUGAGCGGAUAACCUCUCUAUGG RNA 2: GGGAAUGGAUCCACAUCUACGAAUUCGUACCAAAGAGAGGUUAUCCGCUCACCGAGAUCGGAAGAGCACACGU"
  Recorded value: 7.54
- Binder: "target 2 MT 5'PFS UUU 3'PFS UGU (mixed) RNA 1: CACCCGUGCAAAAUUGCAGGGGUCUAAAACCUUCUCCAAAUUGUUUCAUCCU RNA 2: GGGAAUGGAUCCACAUCUACGAAUUCUUUAGGAUGAAACAAUUUGGAGAAGUGUAGAUCGGAAGAGCACACGU"
  Recorded value: 7.80
- Binder: "target 1 U3A,G12U (mixed) RNA 1: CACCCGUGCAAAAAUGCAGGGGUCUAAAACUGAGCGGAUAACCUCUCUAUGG RNA 2: GGGAAUGGAUCCACAUCUACGAAUUCGUACCAUAGAGAGUUUAUCCGCACACCGAGAUCGGAAGAGCACACGU"
  Recorded value: 8.12
- Binder: "target 3 insC 3' of 22,insA 3' of 2 (mixed) RNA 1: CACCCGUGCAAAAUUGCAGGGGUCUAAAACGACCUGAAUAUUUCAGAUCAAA RNA 2: GGGAAUGGAUCCACAUCUACGAAUUCGUUUCUUGAUCUGAAAUAUUCAGGUACUGCAGAUCGGAAGAGCACACGU"
  Recorded value: 7.23
